Protocol Details: chemical genetic growth profiling, strain panel (AID 1159580);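 further: tested at 20 µM; growth read once vehicle control cultures reached saturation at 30 °C; 1 = growth at the plate median or of vehicle wells; lower values mean less growth of the strain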
Details: S. cerevisiae deletion strains, growth OD, locus YLR262C, strain YPT6, stronger effect = lower value
Out of some 5,500 compounds screened, about 2,000 (36%) were called active. About 18% were inconclusive and are not listed. Some of the results follow.
Readout Type: normalized growth

| Compound | Measured Value |
| --- | --- |
| Oc1cc(O)c2c(c1)O[C@H](c1ccc(O)c(O)c1)[C@@H](O)C2 | 0.945 |
| CN(C)CCN(Cc1cccs1)c1ccccn1 | 1.11 |
| O=[N+]([O-])c1ccc(N2CCCCC2)nc1N1CCCCC1 | 0.59 |
| Cc1[nH]c2ccccc2c1CN(C)C | 1.05 |
| Oc1cc(O)c2c(c1)O[C@H](c1cc(O)c(O)c(O)c1)[C@H](O)C2 | 1.06 |
| Oc1cc(O)c2c(c1)O[C@H](c1ccc(O)c(O)c1)[C@H](O)C2 | 1.06 |
| S=c1nc2[nH]c3ccccc3c2n[nH]1 | 0.995 |
| COc1ccc2c(c1)OC1(O)COc3cc(OC)c(OC)cc3C1=C2 (stereo not given) | 0.961 |
| O=[N+]([O-])c1cc(C(F)(F)F)c(N2CCCCC2)cc1N1CCCCC1 | 0.972 |
| CCCCNC(=O)NS(=O)(=O)c1ccc(C)cc1 | 0.933 |

Source listed as PubChem BioAssay AID1159580.
